Molecular target: full length AKT E17K (Homo sapiens, UniProt P31749, E17K)
Construct: host or cells: HEK-293 (ATCC CRL-1573)
Sequence (P31749 whole entry E17K): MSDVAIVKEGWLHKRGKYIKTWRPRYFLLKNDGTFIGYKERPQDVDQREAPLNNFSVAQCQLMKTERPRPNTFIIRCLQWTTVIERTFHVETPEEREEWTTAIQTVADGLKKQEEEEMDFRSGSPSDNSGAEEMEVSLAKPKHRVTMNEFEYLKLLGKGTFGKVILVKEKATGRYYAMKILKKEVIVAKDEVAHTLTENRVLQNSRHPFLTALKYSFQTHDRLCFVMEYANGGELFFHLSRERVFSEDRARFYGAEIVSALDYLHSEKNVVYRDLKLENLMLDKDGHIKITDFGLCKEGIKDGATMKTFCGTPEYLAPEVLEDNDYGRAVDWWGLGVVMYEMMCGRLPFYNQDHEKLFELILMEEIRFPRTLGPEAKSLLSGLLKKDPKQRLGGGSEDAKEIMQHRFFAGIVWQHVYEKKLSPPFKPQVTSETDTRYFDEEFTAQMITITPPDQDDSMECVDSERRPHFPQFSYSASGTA
Assay: NanoBRET Target Engagement (TE) Intracellular Kinase Assay
Format: cell-based
Conditions: read-out: NanoBRET AKT1E17K EC50; HEK-293 cells transfected with NanoLuc-AKT E17K; competitive displacement of NanoBRET tracer; 2 hr equilibration; 10-point 3-fold dilution
Description: The NanoBRET™ Target Engagement (TE) Intracellular Kinase Assays are based on the NanoBRET™ System (Promega Corporation), an energy transfer technique designed to measure molecular proximity in living cells. […] All cells were evaluated for viability prior to transfection and optimization of the transfection was done prior to experimentation. […] Milli-BRET units (mBU) are calculated by multiplying the raw BRET values by 1000. […]
reported-endpoint: EC50

These recorded examples may help you get a feel for the data.
molecule: COc1c(N2CC3CCC2CN3Cc2ccc(-n3c(-c4cccnc4N)nc4ccc(-c5ccccc5)nc43)cc2)c(=O)c1=O (stereo not drawn) [Example 63]
EC50: < 15 nM
//
molecule: COc1c(N2C[C@H]3C[C@@H]2CN3Cc2ccc(-n3c(-c4cccnc4N)nc4ccc(-c5ccccc5)nc43)cc2)c(=O)c1=O [Example 76]
EC50: < 15 nM

Tell me measured EC50 for COc1c(N2CC3(CCN(Cc4ccc(-n5c(-c6cccnc6N)nc6ccc(-c7ccccc7)nc65)cc4)CC3)C2)c(=O)c1=O [Example 53] please.
< 15 nM

====

Each record here notes measured EC50.
biological target: full length AKT E17K (Homo sapiens, UniProt P31749, E17K); construct: host or cells: HEK-293 (ATCC CRL-1573); experiment: NanoBRET Target Engagement (TE) Intracellular Kinase Assay; type: cell-based; conditions: read-out: NanoBRET AKT1E17K EC50; HEK-293 cells transfected with NanoLuc-AKT E17K; competitive displacement of NanoBRET tracer; 2 hr equilibration; 10-point 3-fold dilution

Return the recorded EC50 value; entry: CCSc1c(N(C)C2CCN(Cc3ccc(-n4c(-c5cccnc5N)nc5ccc(-c6ccccc6)nc54)cc3)CC2)c(=O)c1=O [Example 49]
< 15 nM

Return reported EC50. Input compound: COc1c(NC2CCCN(Cc3ccc(-n4c(-c5cccnc5N)nc5ccc(-c6ccccc6)nc54)cc3)CC2)c(=O)c1=O (stereo not shown) [Example 73]
< 15 nM

Supply recorded EC50 for COc1c(N2CCC(OCc3ccc(-n4c(-c5cccnc5N)nc5ccc(-c6ccccc6)nc54)cc3)CC2)c(=O)c1=O [Example 78] here.
< 15 nM

Entry COc1c(N2CC3CCC(C2)N3Cc2ccc(-n3c(-c4cccnc4N)nc4ccc(-c5ccccc5)nc43)cc2)c(=O)c1=O [Example 71] needs its EC50 filled in; supply it.
< 15 nM

Please indicate EC50 recorded for CSc1c(N(C)C2CCN(Cc3ccc(-n4c(-c5cccnc5N)nc5ccc(-c6ccccc6)nc54)cc3)CC2)c(=O)c1=O [Example 47]
< 15 nM

Return EC50 (reported value) for this compound: COc1c(N[C@@H]2CCCN(Cc3ccc(-n4c(-c5cccnc5N)nc5ccc(-c6ccccc6)nc54)cc3)C2)c(=O)c1=O [Example 34]
< 15 nM

Output measured EC50 for this item: COc1c(N2C[C@@H]3C[C@H]2CN3Cc2ccc(-n3c(-c4cccnc4N)nc4ccc(-c5ccccc5)nc43)cc2)c(=O)c1=O [Example 75]
< 15 nM

====

Listed here: items and their measured EC50.
target: full length AKT E17K (Homo sapiens, UniProt P31749, E17K); construct: host or cells: HEK-293 (ATCC CRL-1573); test: NanoBRET Target Engagement (TE) Intracellular Kinase Assay; assay type: cell-based

Check out these entries, answers already filled in.
compound: COc1c(N2[C@@H](C)CN(Cc3ccc(-n4c(-c5cccnc5N)nc5ccc(-c6ccccc6)nc54)cc3)C[C@@H]2C)c(=O)c1=O
target-entity: full length AKT E17K (Homo sapiens, UniProt P31749, E17K)
measurement: 60 to 600 nM

compound: Nc1ncccc1-c1nc2ccc(-c3ccccc3)nc2n1-c1ccc(CN2CCC(Nc3c(OC4CCCC4)c(=O)c3=O)CC2)cc1
target-entity: full length AKT E17K (Homo sapiens, UniProt P31749, E17K)
measurement: 60 to 600 nM

compound: [2H]C([2H])([2H])Oc1c(N2CCN(Cc3ccc(-n4c(-c5cccnc5N)nc5ccc(-c6ccccc6)nc54)cc3)CC2)c(=O)c1=O
target-entity: full length AKT E17K (Homo sapiens, UniProt P31749, E17K)
measurement: 15 to 60 nM

compound: COc1c(N2[C@H](C)CN(Cc3ccc(-n4c(-c5cccnc5N)nc5ccc(-c6ccccc6)nc54)cc3)C[C@@H]2C)c(=O)c1=O
target-entity: full length AKT E17K (Homo sapiens, UniProt P31749, E17K)
measurement: 60 to 600 nM

compound: COc1c(N2CCC3(CCN(Cc4ccc(-n5c(-c6cccnc6N)nc6ccc(-c7ccccc7)nc65)cc4)C3)CC2)c(=O)c1=O
target-entity: full length AKT E17K (Homo sapiens, UniProt P31749, E17K)
measurement: 15 to 60 nM

compound: COc1c(NC2CCN(C(=O)c3ccc(-n4c(-c5cccnc5N)nc5ccc(-c6ccccc6)nc54)cc3)CC2)c(=O)c1=O
target-entity: full length AKT E17K (Homo sapiens, UniProt P31749, E17K)
measurement: > 600 nM

compound: CCSc1c(N2CCC3(CC2)CN(Cc2ccc(-n4c(-c5cccnc5N)nc5ccc(-c6ccccc6)nc54)cc2)C3)c(=O)c1=O
target-entity: full length AKT E17K (Homo sapiens, UniProt P31749, E17K)
measurement: 15 to 60 nM

compound: CN(C)c1c(NC2CCN(Cc3ccc(-n4c(-c5cccnc5N)nc5ccc(-c6ccccc6)nc54)cc3)CC2)c(=O)c1=O
target-entity: full length AKT E17K (Homo sapiens, UniProt P31749, E17K)
measurement: > 600 nM

compound: CN(c1c(S)c(=O)c1=O)C1CCN(Cc2ccc(-n3c(-c4cccnc4N)nc4ccc(-c5ccccc5)nc43)cc2)CC1
target-entity: full length AKT E17K (Homo sapiens, UniProt P31749, E17K)
measurement: > 600 nM

compound: COc1c(N2CCC3(CCN(Cc4ccc(-n5c(-c6cccnc6N)nc6ccc(-c7ccccc7)nc65)cc4)CC3)CC2)c(=O)c1=O
target-entity: full length AKT E17K (Homo sapiens, UniProt P31749, E17K)
measurement: 15 to 60 nM

Please supply the value of reported EC50 for the item COc1c(NC2CCCCN(Cc3ccc(-n4c(-c5cccnc5N)nc5ccc(-c6ccccc6)nc54)cc3)C2)c(=O)c1=O (centres unmarked)
60 to 600 nM

====

target: full length AKT E17K (Homo sapiens, UniProt P31749, E17K); construct: host or cells: HEK-293 (ATCC CRL-1573); test: NanoBRET Target Engagement (TE) Intracellular Kinase Assay; type: cell-based
pEC50: −log10 of the molar value.
reported-endpoint: pEC50

Some compounds with known pEC50 results, for comparison:
compound: Nc1ncccc1-c1nc2ccc(-c3ccccc3)nc2n1-c1ccc(CN2CCN3c4c(c(=O)c4=O)OCC[C@H]3C2)cc1 [Example 89]
pEC50: < 6.22
//
compound: Nc1ncccc1-c1nc2ccc(-c3ccccc3)nc2n1-c1ccc(CN2CCC(Nc3c(O)c(=O)c3=O)CC2)cc1 [Example 18]
pEC50: < 6.22
//
compound: Nc1ncccc1-c1nc2ccc(-c3ccccc3)nc2n1-c1ccc(CN2CCN(c3c(OC4CCCC4)c(=O)c3=O)CC2)cc1 [Example 26]
pEC50: < 6.22
//
compound: CNc1c(NC2CCN(Cc3ccc(-n4c(-c5cccnc5N)nc5ccc(-c6ccccc6)nc54)cc3)CC2)c(=O)c1=O [Example 20]
pEC50: 6.22 to 7.22
//
compound: Nc1ncccc1-c1nc2ccc(-c3ccccc3)nc2n1-c1ccc(CN2CCC(Nc3c(OC4CCCC4)c(=S)c3=O)CC2)cc1 [Example 15]
pEC50: 6.22 to 7.22
//
compound: Nc1ncccc1-c1nc2ccc(-c3ccccc3)nc2n1-c1ccc(CN2CCC(N3CCCOc4c3c(=O)c4=O)C2)cc1 (stereo not drawn) [Example 82]
pEC50: 6.22 to 7.22
//
compound: CCOc1c(NC2CCN(Cc3ccc(-n4c(-c5cccnc5N)nc5ccc(-c6ccccc6)nc54)cc3)CC2)c(=O)c1=O [Example 12]
pEC50: 7.22 to 7.82
//
compound: COc1c(N(C)C2CCN(Cc3ccc(-n4c(-c5cccnc5N)nc5cc(-c6ccccc6)cnc54)cc3)CC2)c(=O)c1=O [Example 32]
pEC50: 6.22 to 7.22

Supply measured pEC50 of COc1c(N2CCN(Cc3ccc(-n4c(-c5cccnc5N)nc5ccc(-c6ccccc6)nc54)cc3)C[C@H]2C)c(=O)c1=O [Example 67] in your reply.
6.22 to 7.22

For Nc1ncccc1-c1nc2ccc(-c3ccccc3)nc2n1-c1ccc(CNC(=O)c2cccc(Nc3c(O)c(=O)c3=O)c2)cc1 [Example 43] , write its pEC50.
< 6.22

Input CCSc1c(N(C2CC2)C2CCN(Cc3ccc(-n4c(-c5cccnc5N)nc5ccc(-c6ccccc6)nc54)cc3)CC2)c(=O)c1=O [Example 96] , output reported pEC50.
7.22 to 7.82

Identify the reported pEC50 for the following entry. COc1c(N2CCN(Cc3ccc(-n4c(-c5cccnc5N)nc5ccc(-c6cccc(NC(C)=O)c6)nc54)cc3)CC2)c(=O)c1=O [Example 7]
7.22 to 7.82

Note down pEC50 recorded for COc1c(N2CCCC3(CN(Cc4ccc(-n5c(-c6cccnc6N)nc6ccc(-c7ccccc7)nc65)cc4)C3)C2)c(=O)c1=O [Example 65]
6.22 to 7.22

Item COc1c(Nc2cccc(C(=O)NCc3ccc(-n4c(-c5cccnc5N)nc5ccc(-c6ccccc6)nc54)cc3)c2)c(=O)c1=O [Example 33] : provide pEC50
6.22 to 7.22

Provide pEC50 value for the following compound: COc1c(N2CCN(Cc3ccc(-n4c(-c5cccnc5N)nc5ccc(-c6ccccc6)nc54)cc3)C[C@H]2CO)c(=O)c1=O [Example 80]
6.22 to 7.22
